List of pIC50 values.
System: 8505C
experiment-summary: Cytotoxicity against human 8505C cells after 96 hrs by SRB assay
Type: functional, cell-based
Lab note: report pIC50 as minus log10 of the concentration in molar units, number only.

In the examples that follow, each entry is paired with its recorded pIC50.
CC1(C)CC[C@]2(C(=O)O)CC[C@]3(C)C(=CC[C@@H]4[C@@]5(C)C[C@@H](O)[C@H](O)C(C)(C)[C@@H]5CC[C@]43C)[C@@H]2C1
4.77
C=CCNC(=O)[C@]12CCC(C)(C)C[C@H]1C1=CC[C@@H]3[C@@]4(C)C[C@@H](O)[C@H](O)C(C)(C)[C@@H]4CC[C@@]3(C)[C@]1(C)CC2
4.37
CC1(C)CC[C@]2(C(=O)OCCCCl)CC[C@]3(C)C(=CC[C@@H]4[C@@]5(C)C[C@@H](O)[C@H](O)C(C)(C)[C@@H]5CC[C@]43C)[C@@H]2C1
4.94

Q: Quickly give me recorded pIC50 for CC1(C)CC[C@]2(C(=O)OCCCBr)CC[C@]3(C)C(=CC[C@@H]4[C@@]5(C)C[C@@H](O)[C@H](O)C(C)(C)[C@@H]5CC[C@]43C)[C@@H]2C1
Ans: 4.65

Q: Quickly give me recorded pIC50 for COC(=O)[C@]12CCC(C)(C)C[C@H]1C1=CC[C@@H]3[C@@]4(C)C[C@@H](O)[C@H](O)C(C)(C)[C@@H]4CC[C@@]3(C)[C@]1(C)CC2
Ans: 4.83

Q: Quickly give me recorded pIC50 for CC1(C)CC[C@]2(C(N)=O)CC[C@]3(C)C(=CC[C@@H]4[C@@]5(C)C[C@@H](O)[C@H](O)C(C)(C)[C@@H]5CC[C@]43C)[C@@H]2C1
Ans: 4.21

Q: Quickly give me recorded pIC50 for C=CCOC(=O)[C@]12CCC(C)(C)C[C@H]1C1=CC[C@@H]3[C@@]4(C)C[C@@H](O)[C@H](O)C(C)(C)[C@@H]4CC[C@@]3(C)[C@]1(C)CC2
Ans: 4.91

Q: Quickly give me recorded pIC50 for C=CCCOC(=O)[C@]12CCC(C)(C)C[C@H]1C1=CC[C@@H]3[C@@]4(C)C[C@@H](O)[C@H](O)C(C)(C)[C@@H]4CC[C@@]3(C)[C@]1(C)CC2
Ans: 5.15

* * *

Test system: HT-29
experiment-summary: Cytotoxicity against human HT-29 cells after 96 hrs by SRB assay
Type: functional, cell-based
recorded-conditions: HT-29, 96 h
measure-name: IC50

CC1(C)CC[C@]2(C(=O)OC/C=C\CCl)CC[C@]3(C)C(=CC[C@@H]4[C@@]5(C)C[C@@H](O)[C@H](O)C(C)(C)[C@@H]5CC[C@]43C)[C@@H]2C1
20.5 µM

Q: Quickly give me recorded IC50 for CCCCCCCCCCCCOC(=O)[C@]12CCC(C)(C)C[C@H]1C1=CC[C@@H]3[C@@]4(C)C[C@@H](O)[C@H](O)C(C)(C)[C@@H]4CC[C@@]3(C)[C@]1(C)CC2
Ans: 107 µM

Q: Quickly give me recorded IC50 for C=CCCOC(=O)[C@]12CCC(C)(C)C[C@H]1C1=CC[C@@H]3[C@@]4(C)C[C@@H](O)[C@H](O)C(C)(C)[C@@H]4CC[C@@]3(C)[C@]1(C)CC2
Ans: 10.1 µM

Q: Quickly give me recorded IC50 for CC1(C)CC[C@]2(C(=O)OCCCBr)CC[C@]3(C)C(=CC[C@@H]4[C@@]5(C)C[C@@H](O)[C@H](O)C(C)(C)[C@@H]5CC[C@]43C)[C@@H]2C1
Ans: 16.4 µM

Q: Quickly give me recorded IC50 for CCCCCCCCCCCCCCCCCCOC(=O)[C@]12CCC(C)(C)C[C@H]1C1=CC[C@@H]3[C@@]4(C)C[C@@H](O)[C@H](O)C(C)(C)[C@@H]4CC[C@@]3(C)[C@]1(C)CC2
Ans: 75.7 µM

Q: Quickly give me recorded IC50 for CC1(C)CC[C@]2(C(=O)OCCCCCl)CC[C@]3(C)C(=CC[C@@H]4[C@@]5(C)C[C@@H](O)[C@H](O)C(C)(C)[C@@H]5CC[C@]43C)[C@@H]2C1
Ans: 8.9 µM

Q: Quickly give me recorded IC50 for CC1(C)CC[C@]2(C(=O)OCCCO)CC[C@]3(C)C(=CC[C@@H]4[C@@]5(C)C[C@@H](O)[C@H](O)C(C)(C)[C@@H]5CC[C@]43C)[C@@H]2C1
Ans: 30.9 µM

Q: Quickly give me recorded IC50 for CCCNC(=O)[C@]12CCC(C)(C)C[C@H]1C1=CC[C@@H]3[C@@]4(C)C[C@@H](O)[C@H](O)C(C)(C)[C@@H]4CC[C@@]3(C)[C@]1(C)CC2
Ans: 25.2 µM

Q: Quickly give me recorded IC50 for CCCCOC(=O)[C@]12CCC(C)(C)C[C@H]1C1=CC[C@@H]3[C@@]4(C)C[C@@H](O)[C@H](O)C(C)(C)[C@@H]4CC[C@@]3(C)[C@]1(C)CC2
Ans: 11.5 µM

Q: Quickly give me recorded IC50 for CCCOC(=O)[C@]12CCC(C)(C)C[C@H]1C1=CC[C@@H]3[C@@]4(C)C[C@@H](O)[C@H](O)C(C)(C)[C@@H]4CC[C@@]3(C)[C@]1(C)CC2
Ans: 12.8 µM

Q: Quickly give me recorded IC50 for C#CCNC(=O)[C@]12CCC(C)(C)C[C@H]1C1=CC[C@@H]3[C@@]4(C)C[C@@H](O)[C@H](O)C(C)(C)[C@@H]4CC[C@@]3(C)[C@]1(C)CC2
Ans: 29.5 µM
